Data credit: ChEMBL document CHEMBL5038618

target: Protein cereblon/Glycogen synthase kinase-3 alpha (Homo sapiens, UniProt P49840+Q96SW2); assay: Protac activity at CRBN/GSK3alpha in human SH-SY5Y cells assessed as induction of GSK3alpha protein degradation at 1 uM measured after 24 hrs; type: cell-based
Sequence (P49840 2-483 limits assumed): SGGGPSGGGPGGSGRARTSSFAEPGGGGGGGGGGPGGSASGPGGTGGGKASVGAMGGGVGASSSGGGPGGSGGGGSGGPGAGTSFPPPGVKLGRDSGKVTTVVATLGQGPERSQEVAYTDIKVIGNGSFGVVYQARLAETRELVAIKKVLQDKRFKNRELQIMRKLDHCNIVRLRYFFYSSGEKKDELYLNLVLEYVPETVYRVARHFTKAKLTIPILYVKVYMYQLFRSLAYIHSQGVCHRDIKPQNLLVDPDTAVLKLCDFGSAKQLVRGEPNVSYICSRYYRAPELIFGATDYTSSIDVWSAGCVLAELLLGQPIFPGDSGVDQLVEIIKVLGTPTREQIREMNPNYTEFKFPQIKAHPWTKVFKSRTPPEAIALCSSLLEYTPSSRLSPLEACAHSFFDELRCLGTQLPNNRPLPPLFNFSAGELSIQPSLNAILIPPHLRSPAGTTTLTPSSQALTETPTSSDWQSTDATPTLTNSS
Sequence (Q96SW2 whole entry partner): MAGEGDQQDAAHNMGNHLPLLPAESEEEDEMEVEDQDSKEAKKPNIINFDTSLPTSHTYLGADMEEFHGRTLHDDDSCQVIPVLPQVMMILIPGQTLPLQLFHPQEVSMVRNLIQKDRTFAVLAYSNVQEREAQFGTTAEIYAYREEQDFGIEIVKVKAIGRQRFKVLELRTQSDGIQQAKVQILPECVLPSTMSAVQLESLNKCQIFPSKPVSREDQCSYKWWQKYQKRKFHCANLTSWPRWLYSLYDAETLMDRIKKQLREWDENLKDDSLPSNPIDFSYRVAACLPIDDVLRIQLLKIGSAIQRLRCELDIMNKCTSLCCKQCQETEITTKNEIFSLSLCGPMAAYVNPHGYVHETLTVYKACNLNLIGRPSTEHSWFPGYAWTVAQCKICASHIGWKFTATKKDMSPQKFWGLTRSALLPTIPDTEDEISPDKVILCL
// reported Activity per item

Take a look at these entries with their results.
compound: COc1ccc(-c2ocnc2C(=O)NCCCn2cc(COCCOCCOCCOCC(=O)N[C@@H](C(=O)N3C[C@H](O)C[C@H]3C(=O)NCc3ccc(-c4scnc4C)cc3)C(C)(C)C)nn2)cc1Cl
assayTarget: Protein cereblon/Glycogen synthase kinase-3 alpha (Homo sapiens, UniProt P49840+Q96SW2)
Activity: < 5%

compound: Nc1ncc(-c2ccc(S(=O)(=O)N3CCN(Cc4cn(CCOCCOCCOCCNC(=O)CNc5cccc6c5CN(C5CCC(=O)NC5=O)C6=O)nn4)CC3)cc2)nc1C(=O)Nc1cccnc1 (stereo not drawn)
assayTarget: Protein cereblon/Glycogen synthase kinase-3 alpha (Homo sapiens, UniProt P49840+Q96SW2)
Activity: < 5%

Switching to the query record.
Report Activity, nothing else, for this compound: `COc1ccc(-c2ocnc2C(=O)NCCCn2cc(CCCCC(=O)N[C@@H](C(=O)N3C[C@H](O)C[C@H]3C(=O)NCc3ccc(-c4scnc4C)cc3)C(C)(C)C)nn2)cc1Cl`
< 5%
